Attribution: the supplement of paper PMC7877785

Parameter: self-splicing fitness (ln). Scope: all listed entries.
method-description: self-splicing fitness, log relative to wild type (ln ratio); higher = more splicing; Tetrahymena group I intron in knt gene, E. coli kanamycin selection, DiMSum; sequences stand for … in CUCUCU…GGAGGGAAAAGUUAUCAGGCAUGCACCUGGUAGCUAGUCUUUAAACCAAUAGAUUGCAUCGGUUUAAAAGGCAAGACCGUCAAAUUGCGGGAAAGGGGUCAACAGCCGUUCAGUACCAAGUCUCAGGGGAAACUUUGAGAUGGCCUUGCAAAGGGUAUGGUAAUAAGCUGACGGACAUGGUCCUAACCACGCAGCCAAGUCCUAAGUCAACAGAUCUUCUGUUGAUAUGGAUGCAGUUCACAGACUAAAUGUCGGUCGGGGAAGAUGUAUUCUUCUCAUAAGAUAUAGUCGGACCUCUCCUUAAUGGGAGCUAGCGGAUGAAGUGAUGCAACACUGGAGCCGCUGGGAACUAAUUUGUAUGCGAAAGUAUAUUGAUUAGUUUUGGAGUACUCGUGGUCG;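 further: selection with 25 µg/mL kanamycin versus none on LB agar overnight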
setup-conditions: 30 °C
# print the numeric value only

Here are 3 sequences together with their reported answers.
- CAGUAGCAAUAUUACGAGAG: -3.95
- CUAAAGCAAUAUUACGCCUG: 0.183
- GAACAGCAAUAUUACGAACG: -1.21

# query: self-splicing fitness (ln) of entry CCUGAGCAAUAUUACGCGGA
-2.9

Next sequence: AAAAAGCAAUAUUACGAAUU
-1.3
